Molecular target: Histone deacetylase 1 (Homo sapiens, UniProt Q13547)
Sequence (Q13547 whole entry): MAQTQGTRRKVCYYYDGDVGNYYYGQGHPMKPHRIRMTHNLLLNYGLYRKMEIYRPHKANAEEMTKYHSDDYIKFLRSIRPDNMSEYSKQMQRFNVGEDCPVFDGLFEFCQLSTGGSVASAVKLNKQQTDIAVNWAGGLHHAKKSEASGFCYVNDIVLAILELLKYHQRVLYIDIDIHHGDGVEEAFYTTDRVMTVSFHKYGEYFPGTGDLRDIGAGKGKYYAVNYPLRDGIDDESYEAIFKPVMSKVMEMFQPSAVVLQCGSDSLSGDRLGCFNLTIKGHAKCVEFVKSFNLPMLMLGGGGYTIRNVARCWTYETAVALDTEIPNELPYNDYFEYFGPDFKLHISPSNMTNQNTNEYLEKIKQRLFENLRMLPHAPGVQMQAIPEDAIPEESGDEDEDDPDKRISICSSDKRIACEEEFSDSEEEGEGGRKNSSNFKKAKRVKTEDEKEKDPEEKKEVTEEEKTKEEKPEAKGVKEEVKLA
Assay: Inhibition of HDAC1 (unknown origin)
pIC50: −log10 of the molar value.
RECORDED_METRIC: pIC50

                           smiles_structure  observed_result
0  CNC(=O)c1cc(Oc2ccc(NC(=O)c3cccnc3)cc2)ccc1N             5.28

----------
Biological target: Serine/threonine-protein kinase A-Raf (Homo sapiens, UniProt P10398)
Sequence (P10398 whole entry): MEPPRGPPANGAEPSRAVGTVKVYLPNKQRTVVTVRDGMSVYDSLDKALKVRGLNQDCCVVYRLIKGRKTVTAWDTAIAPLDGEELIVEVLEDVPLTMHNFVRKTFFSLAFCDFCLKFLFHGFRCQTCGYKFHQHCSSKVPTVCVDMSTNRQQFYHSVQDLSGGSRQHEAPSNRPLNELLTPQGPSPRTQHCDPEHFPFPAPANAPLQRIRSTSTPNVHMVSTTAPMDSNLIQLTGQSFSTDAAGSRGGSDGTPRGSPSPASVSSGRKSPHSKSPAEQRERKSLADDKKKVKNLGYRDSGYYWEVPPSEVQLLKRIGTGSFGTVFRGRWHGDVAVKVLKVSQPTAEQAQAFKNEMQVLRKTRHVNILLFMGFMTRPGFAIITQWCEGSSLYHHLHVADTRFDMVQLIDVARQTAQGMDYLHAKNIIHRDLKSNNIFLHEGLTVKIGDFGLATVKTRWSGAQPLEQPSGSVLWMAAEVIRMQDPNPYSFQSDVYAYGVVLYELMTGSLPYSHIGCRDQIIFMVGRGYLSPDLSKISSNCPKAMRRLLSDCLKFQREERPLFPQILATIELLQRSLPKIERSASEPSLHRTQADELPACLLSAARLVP
Test: Inhibition of human ARAF using human His6-tagged MEK1 (K97R) as substrate preincubated for 20 mins followed by [33P-gamma]ATP addition and measured after 2 hrs by filter-binding assay
RECORDED_METRIC: IC50

In [3]: df
Out[3]:
                           smiles_structure  recorded_metric  observed_result
0  CNC(=O)c1cc(Oc2ccc(NC(=O)c3ccc(Cl)c(C(F)(F)F)c3)cc2)ccc1N             IC50           183 nM
1  CNC(=O)c1cc(Oc2ccc(NC(=O)c3ccc(OC)cc3)cc2)ccc1N             IC50           211 nM

----------
Some compounds, each annotated with its measured IC50.
Target: Serine/threonine-protein kinase B-raf (Homo sapiens, UniProt P15056, V600E)
Assay: Inhibition of recombinant human N-terminal GST-tagged BRAF V600E mutant catalytic domain (416 to 766 residues) expressed in baculovirus expression system using human His6-tagged MEK1 (K97R) as substrate preincubated for 20 mins followed by [33P-gamma]ATP addition and measured after 2 hrs by filter-binding assay
RECORDED_METRIC: IC50

>>> print(df.to_string())
                           smiles_structure  observed_result
0  CNC(=O)c1cc(Oc2ccc(NC(=O)c3ccc(F)cc3)cc2)ccc1N           303 nM
1  CNC(=O)c1cc(Oc2ccc(NC(=O)c3ccc(N)cc3)cc2)ccc1N           942 nM
2  CNC(=O)c1cc(Oc2ccc(NC(=O)c3ccc(OC)cc3)cc2)ccc1N           187 nM
3  CN(C)C(=O)c1cc(Oc2ccc(NC(=O)c3ccc(Cl)c(C(F)(F)F)c3)cc2)ccc1N          4170 nM
4  CCNC(=O)c1cc(Oc2ccc(NC(=O)c3ccc(Cl)c(C(F)(F)F)c3)cc2)ccc1N           354 nM
